Test: Half life in PBS at pH 7 to 8 assessed as hydrolysis of compound to fluoxetine at 200 uM by HPLC-UV analysis
Assay type: physicochemical
Observable: half-life at 200 µM (h)
Please state the figure in h; there is no need to write the unit.

Q: Consider the molecule shown here: CN(CCC(Oc1ccc(C(F)(F)F)cc1)c1ccccc1)C(=O)SCCO[N+](=O)[O-] (stereo unspecified) What is its recorded half-life at 200 µM?
A: 1.67

Each recorded value in this set is attributed to ChEMBL document CHEMBL2010761.
